- ASSAYED TARGET: Tyrosine-protein kinase JAK2 (Homo sapiens)
- Sequence (O60674 whole entry): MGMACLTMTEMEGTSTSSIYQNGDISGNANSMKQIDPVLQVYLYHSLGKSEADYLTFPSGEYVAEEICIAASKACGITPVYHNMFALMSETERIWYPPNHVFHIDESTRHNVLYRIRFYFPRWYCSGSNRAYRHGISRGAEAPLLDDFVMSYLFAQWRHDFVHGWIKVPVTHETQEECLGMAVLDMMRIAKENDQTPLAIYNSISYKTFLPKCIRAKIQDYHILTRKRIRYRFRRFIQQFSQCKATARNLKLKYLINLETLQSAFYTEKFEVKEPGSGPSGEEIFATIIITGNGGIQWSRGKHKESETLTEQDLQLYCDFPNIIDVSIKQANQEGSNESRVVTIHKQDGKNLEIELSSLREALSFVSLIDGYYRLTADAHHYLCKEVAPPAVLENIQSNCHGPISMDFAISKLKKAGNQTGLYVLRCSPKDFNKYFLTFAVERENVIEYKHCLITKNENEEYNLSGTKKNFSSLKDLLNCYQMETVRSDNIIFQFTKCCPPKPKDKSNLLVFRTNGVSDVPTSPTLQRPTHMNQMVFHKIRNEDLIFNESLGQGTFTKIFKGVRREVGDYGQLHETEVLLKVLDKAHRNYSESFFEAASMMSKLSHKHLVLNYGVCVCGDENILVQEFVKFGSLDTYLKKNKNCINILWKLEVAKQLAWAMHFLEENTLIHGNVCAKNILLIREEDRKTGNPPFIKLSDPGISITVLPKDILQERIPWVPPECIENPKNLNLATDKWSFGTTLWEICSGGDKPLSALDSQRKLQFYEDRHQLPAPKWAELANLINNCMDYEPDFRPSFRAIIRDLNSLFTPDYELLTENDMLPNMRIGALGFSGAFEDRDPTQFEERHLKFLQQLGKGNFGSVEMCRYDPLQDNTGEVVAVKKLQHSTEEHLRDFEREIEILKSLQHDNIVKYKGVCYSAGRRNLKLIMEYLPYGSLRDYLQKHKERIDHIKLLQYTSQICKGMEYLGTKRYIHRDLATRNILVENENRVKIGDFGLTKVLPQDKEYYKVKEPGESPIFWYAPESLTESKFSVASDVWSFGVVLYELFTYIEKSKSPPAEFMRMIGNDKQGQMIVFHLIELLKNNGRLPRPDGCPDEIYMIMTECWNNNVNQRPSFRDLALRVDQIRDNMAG
MEASURED PARAMETER: IC50 (nM)
Kindly answer with a numeric value in nM, unit omitted.

# IC50 (compound: COc1cc(Nc2nc3cccc(-c4cccc5[nH]cnc45)c3o2)cc(OC)c1OC ) is 460

====

- ASSAYED TARGET: Aurora kinase A (Homo sapiens, UniProt O14965)
- Sequence (O14965 whole entry): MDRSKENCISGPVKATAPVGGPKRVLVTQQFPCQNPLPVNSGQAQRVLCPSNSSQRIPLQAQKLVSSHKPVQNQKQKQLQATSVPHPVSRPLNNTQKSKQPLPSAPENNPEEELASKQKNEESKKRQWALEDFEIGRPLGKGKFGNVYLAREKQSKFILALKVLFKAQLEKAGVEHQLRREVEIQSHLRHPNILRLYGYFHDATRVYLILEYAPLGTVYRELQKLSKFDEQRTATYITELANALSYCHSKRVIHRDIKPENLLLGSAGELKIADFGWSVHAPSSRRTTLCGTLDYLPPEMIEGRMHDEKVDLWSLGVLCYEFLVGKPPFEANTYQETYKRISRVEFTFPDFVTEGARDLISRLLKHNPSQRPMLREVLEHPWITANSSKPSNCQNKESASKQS
MEASURED PARAMETER: IC50 (nM)
# value in nM; strip the unit string

GET /value?item= COc1cc(Nc2nc3cccc(-c4cccc5[nH]cnc45)c3o2)cc(OC)c1OC &field=IC50 returns 600
